All values here come from paper PMC7269057.

molecular target: hCA VII (Homo sapiens)
Sequence (P43166 whole entry): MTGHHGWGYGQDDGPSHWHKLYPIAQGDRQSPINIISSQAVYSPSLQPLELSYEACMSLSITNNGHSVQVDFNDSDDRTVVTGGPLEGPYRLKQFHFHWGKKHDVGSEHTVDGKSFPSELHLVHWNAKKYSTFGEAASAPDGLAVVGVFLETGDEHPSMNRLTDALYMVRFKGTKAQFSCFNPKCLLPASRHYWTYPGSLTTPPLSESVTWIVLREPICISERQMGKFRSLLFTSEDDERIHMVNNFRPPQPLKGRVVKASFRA
Below, each of the compounds is paired with its reported Ki value.

Answered examples (3):
CC(C)(C)c1cc2c3c(c1)Cc1cc(C=Nc4ccc(S(N)(=O)=O)cc4)cc(c1O)Cc1cc(C(C)(C)C)cc(c1OCC(=O)NCCNC(=O)CO3)Cc1cc(C=Nc3ccc(S(N)(=O)=O)cc3)cc(c1O)C2    1.21 µM
CC(C)(C)c1cc2c3c(c1)Cc1cc(C=Nc4ccc(S(=O)(=O)Nc5nc6ccccc6s5)cc4)cc(c1O)Cc1cc(C(C)(C)C)cc(c1OCC(=O)NCCNC(=O)CO3)Cc1cc(C=Nc3ccc(S(=O)(=O)Nc4nc5ccccc5s4)cc3)cc(c1O)C2    > 100 µM
CC(=O)Nc1ccc(S(=O)(=O)NN=Cc2cc3c(O)c(c2)Cc2cc(C(C)(C)C)cc4c2OCC(=O)NCCNC(=O)COc2c(cc(C(C)(C)C)cc2Cc2cc(C=NNS(=O)(=O)c5ccc(NC(C)=O)cc5)cc(c2O)C4)C3)cc1    > 100 µM

## Task Param readout = Ki; param system = hCA VII (Homo sapiens); param query = "CC(C)(C)c1cc2c3c(c1)Cc1cc(C=Nc4ccc(S(=O)(=O)Nc5ncccn5)cc4)cc(c1O)Cc1cc(C(C)(C)C)cc(c1OCC(=O)NCCNC(=O)CO3)Cc1cc(C=Nc3ccc(S(=O)(=O)Nc4ncccn4)cc3)cc(c1O)C2" ; response: value
## Result > 100 µM

## Task Look up Ki with hCA VII (Homo sapiens) for this compound: "Cc1ccc(S(=O)(=O)NN=Cc2cc3c(O)c(c2)Cc2cc(C(C)(C)C)cc4c2OCC(=O)NCCNC(=O)COc2c(cc(C(C)(C)C)cc2Cc2cc(C=NNS(=O)(=O)c5ccc(C)cc5)cc(c2O)C4)C3)cc1"
## Result > 100 µM

## Task Report Ki for "Cc1cc(NS(=O)(=O)c2ccc(/N=C/c3cc4c(O)c(c3)Cc3cc(C(C)(C)C)cc5c3OCC(=O)NCCNC(=O)COc3c(cc(C(C)(C)C)cc3Cc3cc(/C=N/c6ccc(S(=O)(=O)Nc7cc(C)on7)cc6)cc(c3O)C5)C4)cc2)no1" tested on hCA VII (Homo sapiens).
## Result > 100 µM

====

Endpoint: Ki. System: UniProt P00918. Items follow.

CC(C)(C)c1cc2c3c(c1)Cc1cc(C=Nc4ccc(S(=O)(=O)Nc5ncccn5)cc4)cc(c1O)Cc1cc(C(C)(C)C)cc(c1OCC(=O)NCCNC(=O)CO3)Cc1cc(C=Nc3ccc(S(=O)(=O)Nc4ncccn4)cc3)cc(c1O)C2    > 100000 nM

## Task Bench note: what Ki did "CC(C)(C)c1cc2c3c(c1)Cc1cc(C=Nc4ccc(S(N)(=O)=O)cc4)cc(c1O)Cc1cc(C(C)(C)C)cc(c1OCC(=O)NCCNC(=O)CO3)Cc1cc(C=Nc3ccc(S(N)(=O)=O)cc3)cc(c1O)C2" show?
## Result 820 nM

====

Some compounds, each annotated with its measured Ki.
biological target: hCA XII (Homo sapiens, UniProt O43570)
Sequence (O43570 25-354): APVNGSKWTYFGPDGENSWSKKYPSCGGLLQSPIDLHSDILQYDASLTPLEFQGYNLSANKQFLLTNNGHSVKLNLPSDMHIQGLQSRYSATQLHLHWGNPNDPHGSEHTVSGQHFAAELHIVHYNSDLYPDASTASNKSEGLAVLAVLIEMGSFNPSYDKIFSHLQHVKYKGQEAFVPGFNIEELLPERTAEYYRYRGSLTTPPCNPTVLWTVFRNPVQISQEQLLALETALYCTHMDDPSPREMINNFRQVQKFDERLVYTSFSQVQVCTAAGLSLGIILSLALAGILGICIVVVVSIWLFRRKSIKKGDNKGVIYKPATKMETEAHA

CC(C)(C)c1cc2c3c(c1)Cc1cc(C=Nc4ccc(S(=O)(=O)Nc5nc6ccccc6s5)cc4)cc(c1O)Cc1cc(C(C)(C)C)cc(c1OCC(=O)NCCNC(=O)CO3)Cc1cc(C=Nc3ccc(S(=O)(=O)Nc4nc5ccccc5s4)cc3)cc(c1O)C2 [CX-4]    > 100 µM

## Task Suppose we examine the compound Cc1ccc(S(=O)(=O)NN=Cc2cc3c(O)c(c2)Cc2cc(C(C)(C)C)cc4c2OCC(=O)NCCNC(=O)COc2c(cc(C(C)(C)C)cc2Cc2cc(C=NNS(=O)(=O)c5ccc(C)cc5)cc(c2O)C4)C3)cc1 [CX-5] ; what Ki value has been reported?
## Result > 100 µM

## Task Fill in the blank: the reported Ki of CC(C)(C)c1cc2c3c(c1)Cc1cc(C=Nc4ccc(S(=O)(=O)Nc5ncccn5)cc4)cc(c1O)Cc1cc(C(C)(C)C)cc(c1OCC(=O)NCCNC(=O)CO3)Cc1cc(C=Nc3ccc(S(=O)(=O)Nc4ncccn4)cc3)cc(c1O)C2 [CX-3] is ____.
## Result 10.2 µM

## Task Any idea what its Ki is? The compound is CC(=O)Nc1ccc(S(=O)(=O)NN=Cc2cc3c(O)c(c2)Cc2cc(C(C)(C)C)cc4c2OCC(=O)NCCNC(=O)COc2c(cc(C(C)(C)C)cc2Cc2cc(C=NNS(=O)(=O)c5ccc(NC(C)=O)cc5)cc(c2O)C4)C3)cc1 [CX-6]
## Result > 100 µM

## Task What does the record list as Ki for Cc1cc(NS(=O)(=O)c2ccc(/N=C/c3cc4c(O)c(c3)Cc3cc(C(C)(C)C)cc5c3OCC(=O)NCCNC(=O)COc3c(cc(C(C)(C)C)cc3Cc3cc(/C=N/c6ccc(S(=O)(=O)Nc7cc(C)on7)cc6)cc(c3O)C5)C4)cc2)no1 [CX-2] ?
## Result > 100 µM

## Task Name the recorded Ki for CC(C)(C)c1cc2c3c(c1)Cc1cc(C=Nc4ccc(S(N)(=O)=O)cc4)cc(c1O)Cc1cc(C(C)(C)C)cc(c1OCC(=O)NCCNC(=O)CO3)Cc1cc(C=Nc3ccc(S(N)(=O)=O)cc3)cc(c1O)C2 [CX-1] .
## Result 0.27 µM
